- System: C. elegans
- Procedure Text: motility assay
- Assay type: in vivo
- Set-up: key: normal (−); slow (+); very slow (++); not motile/paralyzed (+++)
- Measurement Parameters: dilution 1/1600 of stock (10.24 μg/μL; SK-03-92 1.024 μg/μL); overnight 20° C.; Ive 1 ng/μL in all wells
Reported Endpoint: Movement score, 1/1600

Answered examples (5):
Exercise: Please indicate Movement score, 1/1600 recorded for `COc1cc(O)cc(/C=C/Sc2ccccc2)c1`
Solution: −

Exercise: Please indicate Movement score, 1/1600 recorded for `COc1cc(O)cc(/C=C/Sc2ccccc2C(C)C)c1`
Solution: −

Exercise: Please indicate Movement score, 1/1600 recorded for `COc1cc(O)cc(/C=C/SC2CCCCC2)c1`
Solution: +

Exercise: Please indicate Movement score, 1/1600 recorded for `COc1cc(O)cc(/C=C/Sc2ccc3ccccc3c2)c1`
Solution: ++

Exercise: Please indicate Movement score, 1/1600 recorded for `COc1cc(O)cc(/C=C/Oc2cccc(OC)c2)c1`
Solution: +

---
Exercise: Please indicate Movement score, 1/1600 recorded for `COc1cc(O)cc(/C=C/Oc2cccc3ccccc23)c1`
Solution: −

Exercise: Please indicate Movement score, 1/1600 recorded for `COc1cc(O)cc(/C=C/Oc2cccc(C)c2)c1`
Solution: +

###

- Tested on: Staphylococcus aureus MRSA MC-1
- Procedure Text: microbe, parasite or virus in culture
- Format: cell-based
- Measurement Parameters: Staphylococcus aureus, MRSA, read-out: MIC MRSA
Reported Endpoint: MIC (µg/mL)
// note: answer is a bare numeric in µg/mL

Answered examples (3):
Exercise: Please indicate MIC recorded for COc1cc(O)cc(/C=C/Oc2ccc(C)cc2)c1 [Compound A10]
Solution: 32

Exercise: Please indicate MIC recorded for COc1cc(O)cc(O/C=C/c2ccccc2)c1 [CL-2]
Solution: 32

Exercise: Please indicate MIC recorded for COc1cc(O)cc(/C=C/Oc2cccc(C)c2)c1 [Compound A9]
Solution: 32

---
Exercise: Please indicate MIC recorded for COc1cc(O)cc(/C=C/Oc2ccccc2)c1 [CL-1]
Solution: 64

Exercise: Please indicate MIC recorded for COc1cc(O)cc(/C=C/Sc2ccccc2)c1 [CL-4]
Solution: 32

Exercise: Please indicate MIC recorded for COc1cc(O)cc(/C=C/Oc2cccc(OC)c2)c1 [Compound A8]
Solution: 64

Exercise: Please indicate MIC recorded for COc1cc(O)cc(/C=C/c2ccsc2)c1 [CL-5]
Solution: 32

Exercise: Please indicate MIC recorded for COc1cc(O)cc(/C=C/c2cccs2)c1 [CL-6]
Solution: 32

Exercise: Please indicate MIC recorded for COc1cc(O)cc(/C=C/Oc2ccc3ccccc3c2)c1 [SK-04-23]
Solution: 8

Exercise: Please indicate MIC recorded for Oc1cc(O)cc(/C=C/c2ccc3ccccc3c2)c1 [SK-03-28F3]
Solution: 256

###

The reader will find reported MIC M. chelonae values listed item by item below.
- System: Mycobacterium chelonae
- Procedure Text: MIC assay
- Format: cell-based
- Measurement Parameters: Table 6
// note: answer is a bare numeric in µg/mL

Answered examples (3):
Exercise: Please indicate MIC M. chelonae recorded for CCOC(=O)/C=C\Sc1ncccn1 [SK-04-58F]
Solution: 32

Exercise: Please indicate MIC M. chelonae recorded for CCOC(=O)/C=C\Sc1nc2ccccc2s1 [SK-04-59F]
Solution: 8

Exercise: Please indicate MIC M. chelonae recorded for `N#Cc1cccc(/C=C/SC2=NCCS2)c1`
Solution: 64

Moving on to another compound below.
Exercise: Please indicate MIC M. chelonae recorded for `N#Cc1cccc(/C=C/Sc2ncccn2)c1`
Solution: 256

###

- Tested on: C. elegans
- Procedure Text: motility assay
- Type: in vivo
- Design: key: normal (−); slow (+); very slow (++); not motile/paralyzed (+++)
- Measurement Parameters: dilution 1/1600 of stock (10.24 μg/μL; SK-03-92 1.024 μg/μL); overnight 20° C.; Ive 1 ng/μL in all wells
Reported Endpoint: Movement score, 1/1600

Answered examples (5):
Exercise: Please indicate Movement score, 1/1600 recorded for COc1cc(O)cc(O/C=C/c2ccccc2)c1 [CL-2]
Solution: −

Exercise: Please indicate Movement score, 1/1600 recorded for COc1ccc(O/C=C/c2cc(O)cc(OC)c2)cc1 [Compound A6]
Solution: −

Exercise: Please indicate Movement score, 1/1600 recorded for COc1cc(O)cc(/C=C/c2cccs2)c1 [CL-6]
Solution: −

Exercise: Please indicate Movement score, 1/1600 recorded for COc1cc(O)cc(/C=C/Oc2ccccc2)c1 [CL-1]
Solution: −

Exercise: Please indicate Movement score, 1/1600 recorded for COc1cc(O)cc(/C=C/Oc2ccc3ccccc3c2)c1 [SK-04-23]
Solution: +

---
Exercise: Please indicate Movement score, 1/1600 recorded for COc1cc(O)cc(/C=C/Oc2ccc(C)cc2)c1 [Compound A10]
Solution: +

Exercise: Please indicate Movement score, 1/1600 recorded for CCC(C)CS/C=C/c1cc(O)cc(OC)c1 (centres unmarked) [SK-05-22]
Solution: −

Exercise: Please indicate Movement score, 1/1600 recorded for CCOC(=O)/C=C\Sc1ccc(C(C)(C)C)cc1 [SK-04-57]
Solution: −

Exercise: Please indicate Movement score, 1/1600 recorded for CCOC(=O)/C=C\Sc1nc2ccccc2s1 [SK-04-59F1]
Solution: −

Exercise: Please indicate Movement score, 1/1600 recorded for COc1cc(O)cc(/C=C/c2ccsc2)c1 [CL-5]
Solution: ++

Exercise: Please indicate Movement score, 1/1600 recorded for COc1cc(O)cc(/C=C/c2cc3ccccc3s2)c1 [SK-03-92]
Solution: −

###

- System: Bacillus cereus
- Procedure Text: microbe, parasite or virus in culture
- Type: cell-based
- Measurement Parameters: Table 3
The reader will find reported MIC B. cereus, G+ (anthrax surrogate) values listed item by item below.
// note: answer is a bare numeric in µg/mL

Answered examples (2):
Exercise: Please indicate MIC B. cereus, G+ (anthrax surrogate) recorded for `COc1cc(O)cc(/C=C/Oc2ccccc2)c1`
Solution: 16

Exercise: Please indicate MIC B. cereus, G+ (anthrax surrogate) recorded for COc1cc(O)cc(/C=C/c2ccccc2)c1 [CL-3, 3-hydroxy-5-methoxystilbene]
Solution: 16

---
Exercise: Please indicate MIC B. cereus, G+ (anthrax surrogate) recorded for `COc1cc(O)cc(/C=C/c2ccsc2)c1`
Solution: 32

###

- System: C. elegans
- Procedure Text: motility assay
- Type: in vivo
- Design: key: normal (−); slow (+); very slow (++); not motile/paralyzed (+++)
- Measurement Parameters: dilution 1/1600 of stock (10.24 μg/μL; SK-03-92 1.024 μg/μL); overnight 20° C.; Ive 1 ng/μL in all wells
Reported Endpoint: Movement score, 1/1600

Answered examples (4):
Exercise: Please indicate Movement score, 1/1600 recorded for `COc1cc(O)cc(C#Cc2ccccc2)c1`
Solution: +

Exercise: Please indicate Movement score, 1/1600 recorded for `COc1cc(O)cc(/C=C/c2ccc3ccccc3c2)c1`
Solution: −

Exercise: Please indicate Movement score, 1/1600 recorded for `COc1cc(O)cc(/C=C/c2cccc(O)c2)c1`
Solution: −

Exercise: Please indicate Movement score, 1/1600 recorded for `COc1cc(O)cc(/C=C/Sc2cccc3ccccc23)c1`
Solution: −

---
Exercise: Please indicate Movement score, 1/1600 recorded for COc1cc(O)cc(/C=C/c2ccccc2)c1 [CL-3, 3-hydroxy-5-methoxystilbene]
Solution: −

###

- Tested on: Enterococcus faecium VRE 1
- Procedure Text: organism not typed
- Assay type: cell-based
- Measurement Parameters: Table 3
The reader will find reported MIC E. faecium VRE 1, G+ values listed item by item below.

Exercise: Please indicate MIC E. faecium VRE 1, G+ recorded for `COc1cc(O)cc(/C=C/c2ccsc2)c1`
Solution: 32 µg/mL

Exercise: Please indicate MIC E. faecium VRE 1, G+ recorded for `COc1ccc(O/C=C/c2cc(O)cc(OC)c2)cc1`
Solution: 64 µg/mL

Exercise: Please indicate MIC E. faecium VRE 1, G+ recorded for `COc1cc(O)cc(/C=C/Oc2ccccc2C)c1`
Solution: 32 µg/mL

Exercise: Please indicate MIC E. faecium VRE 1, G+ recorded for `COc1cc(O)cc(/C=C/Oc2ccccc2)c1`
Solution: 64 µg/mL

Exercise: Please indicate MIC E. faecium VRE 1, G+ recorded for `COc1cc(O)cc(/C=C/Oc2ccc(C)cc2)c1`
Solution: 32 µg/mL

Moving on to another compound below.
Exercise: Please indicate MIC E. faecium VRE 1, G+ recorded for `COc1cc(O)cc(/C=C/Oc2cccc(OC)c2)c1`
Solution: 64 µg/mL

###

The reader will find reported MIC values listed item by item below.
- Tested on: Staphylococcus aureus MRSA MC-1
- Procedure Text: microbe, parasite or virus in culture
- Format: cell-based
- Measurement Parameters: Staphylococcus aureus, MRSA, read-out: MIC MRSA
// note: answer is a bare numeric in µg/mL

Answered examples (2):
Exercise: Please indicate MIC recorded for `COc1cc(O)cc(/C=C/Oc2cccc3ccccc23)c1`
Solution: 16

Exercise: Please indicate MIC recorded for `COc1ccc(O/C=C/c2cc(O)cc(OC)c2)cc1`
Solution: 64

Moving on to another compound below.
Exercise: Please indicate MIC recorded for `COc1cc(O)cc(/C=C/Oc2ccccc2C)c1`
Solution: 32
